# tested_system: Neuronal acetylcholine receptor; alpha4/beta2 (Rattus norvegicus, UniProt P09483+P12390)
# Sequence (P09483 whole entry): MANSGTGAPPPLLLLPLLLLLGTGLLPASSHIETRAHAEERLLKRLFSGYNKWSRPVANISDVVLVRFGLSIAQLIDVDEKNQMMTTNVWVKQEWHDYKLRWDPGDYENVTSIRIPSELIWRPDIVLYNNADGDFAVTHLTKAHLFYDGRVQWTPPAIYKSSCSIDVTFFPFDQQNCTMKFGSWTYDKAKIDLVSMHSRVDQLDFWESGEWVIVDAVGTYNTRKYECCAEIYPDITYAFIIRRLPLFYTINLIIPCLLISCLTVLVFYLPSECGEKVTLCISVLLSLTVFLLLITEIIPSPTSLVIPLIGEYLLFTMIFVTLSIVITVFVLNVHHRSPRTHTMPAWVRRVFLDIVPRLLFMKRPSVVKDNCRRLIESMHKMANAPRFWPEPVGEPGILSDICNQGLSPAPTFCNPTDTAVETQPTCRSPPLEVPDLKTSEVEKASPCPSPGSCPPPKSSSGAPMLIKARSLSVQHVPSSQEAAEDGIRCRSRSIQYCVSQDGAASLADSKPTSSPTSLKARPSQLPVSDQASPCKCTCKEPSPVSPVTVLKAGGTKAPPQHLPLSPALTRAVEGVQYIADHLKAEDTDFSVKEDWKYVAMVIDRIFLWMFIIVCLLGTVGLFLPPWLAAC
# Sequence (P12390 whole entry): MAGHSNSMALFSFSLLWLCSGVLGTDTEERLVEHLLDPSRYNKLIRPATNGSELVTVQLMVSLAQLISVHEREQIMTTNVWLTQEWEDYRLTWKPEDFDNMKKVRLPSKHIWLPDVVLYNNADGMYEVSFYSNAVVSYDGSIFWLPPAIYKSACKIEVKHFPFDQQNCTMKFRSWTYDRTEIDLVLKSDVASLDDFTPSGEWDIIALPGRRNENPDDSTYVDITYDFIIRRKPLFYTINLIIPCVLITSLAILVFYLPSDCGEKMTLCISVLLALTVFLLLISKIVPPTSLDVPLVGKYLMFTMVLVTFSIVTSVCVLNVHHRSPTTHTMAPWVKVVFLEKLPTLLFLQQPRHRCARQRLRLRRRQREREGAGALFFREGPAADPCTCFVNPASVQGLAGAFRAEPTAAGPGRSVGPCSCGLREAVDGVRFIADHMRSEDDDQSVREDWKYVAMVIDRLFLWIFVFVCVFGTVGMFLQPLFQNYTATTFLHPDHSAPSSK
# run_description: Displacement of [3H]cytisine from alpha-4-beta-2 in rat cerebral cortical membrane
# Assay type: cell membranes
# experimental_setup: read-out: Ki
What pKi was measured for each of the following?
Note: pKi values are expressed as the negative base-10 logarithm of concentration in M.

State, in one line, measured pKi of Cc1nsc(N2C[C@H]3C[C@@H]2CN3)n1
6.46

State, in one line, measured pKi of COc1cncc(N2C[C@@H]3C[C@H]2CN3)c1
9.28

State, in one line, measured pKi of c1cncc(CN2C[C@H]3C[C@@H]2CN3)c1
7.25

State, in one line, measured pKi of CN1C[C@@H]2C[C@H]1CN2c1ccc(Cl)nc1
8.89

State, in one line, measured pKi of c1cncc(N2C[C@@H]3C[C@H]2CN3)c1
9.82

###

# Test system: Striatum
# run_description: Agonist activity at rat striatal tissue assessed as dopamine release
# Assay type: functional
# experimental_setup: Rattus norvegicus, Striatum; read-out: Log EC50 (converted)
What EC50 was measured for each of the following?
Respond with the bare value in nM.

State, in one line, measured EC50 of c1cncc(N2C[C@@H]3C[C@H]2CN3)c1
138

State, in one line, measured EC50 of NC(=O)c1cncc(N2C[C@H]3C[C@@H]2CN3)c1
30.2

State, in one line, measured EC50 of Cc1ccc(N2C[C@@H]3C[C@H]2CN3)cn1
347

###

# tested_system: Neuronal acetylcholine receptor; alpha4/beta2 (Rattus norvegicus, UniProt P09483+P12390)
# run_description: Displacement of [3H]cytisine from alpha-4-beta-2 in rat cerebral cortical membrane
# Type: cell membranes
# experimental_setup: read-out: Ki
reported_property: pKi
Note: pKi values are expressed as the negative base-10 logarithm of concentration in M.

State, in one line, measured pKi of N#Cc1cncc(N2C[C@H]3C[C@@H]2CN3)c1
10.57

State, in one line, measured pKi of Cc1cc(N2C[C@@H]3C[C@H]2CN3)nnc1Cl
8.42

State, in one line, measured pKi of N#Cc1cncc(N2C[C@@H]3C[C@H]2CN3)c1
8.77

State, in one line, measured pKi of Cc1cc(N2C[C@@H]3C[C@H]2CN3)sn1
8.31

State, in one line, measured pKi of Fc1ccc(N2C[C@H]3C[C@@H]2CN3)cn1
10.55

State, in one line, measured pKi of CCN1C[C@@H]2C[C@H]1CN2c1ccc(Cl)nc1
7.47

State, in one line, measured pKi of O=S(=O)(c1cnc(Cl)c(Br)c1)N1C[C@H]2C[C@@H]1CN2
7.77

State, in one line, measured pKi of c1cncc(N2CC3CCC2CN3)c1 (stereo unspecified)
10.70

State, in one line, measured pKi of Cc1cc(N2C[C@H]3C[C@@H]2CN3)cnc1Cl
10.85

State, in one line, measured pKi of O=[N+]([O-])c1ccc(N2C[C@@H]3C[C@H]2CN3)cn1
6.96

State, in one line, measured pKi of COc1cncc(N2C[C@H]3C[C@@H]2CN3)c1
9.92

###

# tested_system: Neuronal acetylcholine receptor; alpha4/beta2 (Homo sapiens, UniProt P17787+P43681)
# Sequence (P17787 whole entry): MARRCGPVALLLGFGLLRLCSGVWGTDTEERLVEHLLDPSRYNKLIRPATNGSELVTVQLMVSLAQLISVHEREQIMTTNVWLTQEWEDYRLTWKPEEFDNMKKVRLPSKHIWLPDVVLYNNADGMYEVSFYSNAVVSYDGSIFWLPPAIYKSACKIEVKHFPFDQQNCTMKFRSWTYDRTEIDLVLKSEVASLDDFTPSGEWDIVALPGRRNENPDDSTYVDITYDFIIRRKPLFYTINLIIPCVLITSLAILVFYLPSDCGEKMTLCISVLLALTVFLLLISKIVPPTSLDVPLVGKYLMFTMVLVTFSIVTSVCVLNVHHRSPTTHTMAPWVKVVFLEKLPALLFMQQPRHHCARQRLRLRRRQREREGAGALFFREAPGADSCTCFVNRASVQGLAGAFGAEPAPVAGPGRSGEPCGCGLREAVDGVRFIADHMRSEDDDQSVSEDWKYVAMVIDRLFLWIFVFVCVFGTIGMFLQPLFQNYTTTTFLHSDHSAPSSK
# Sequence (P43681 whole entry): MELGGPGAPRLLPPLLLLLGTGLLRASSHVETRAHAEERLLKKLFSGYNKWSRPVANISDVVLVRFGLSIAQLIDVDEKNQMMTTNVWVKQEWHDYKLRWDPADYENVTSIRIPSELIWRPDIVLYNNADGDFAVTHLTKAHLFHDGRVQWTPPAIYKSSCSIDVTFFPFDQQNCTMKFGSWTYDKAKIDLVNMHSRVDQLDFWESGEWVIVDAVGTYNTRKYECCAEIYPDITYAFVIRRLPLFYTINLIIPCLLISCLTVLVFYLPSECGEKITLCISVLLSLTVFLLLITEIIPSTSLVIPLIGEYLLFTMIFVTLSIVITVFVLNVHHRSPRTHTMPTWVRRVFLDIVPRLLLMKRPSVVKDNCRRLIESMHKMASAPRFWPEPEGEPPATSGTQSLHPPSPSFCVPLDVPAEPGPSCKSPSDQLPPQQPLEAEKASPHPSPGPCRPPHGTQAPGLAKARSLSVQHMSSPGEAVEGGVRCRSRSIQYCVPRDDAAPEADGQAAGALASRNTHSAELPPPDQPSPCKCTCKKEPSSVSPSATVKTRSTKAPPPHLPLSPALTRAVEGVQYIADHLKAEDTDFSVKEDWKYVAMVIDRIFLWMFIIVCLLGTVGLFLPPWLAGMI
# run_description: Agonist activity at […] in IMR-32cells assessed as calcium influx by FLIPR assay
# Format: functional
# experimental_setup: read-out: EC50
reported_property: EC50 (µM)
Respond with the bare value in µM.

State, in one line, measured EC50 of Nc1ccc(N2CC3CC2CN3)cn1 (configuration not stated)
31

State, in one line, measured EC50 of Fc1ccc(N2C[C@H]3C[C@@H]2CN3)cn1
0.16

State, in one line, measured EC50 of c1cncc(N2CC3CNC(C3)C2)c1 (configuration not stated)
0.072

State, in one line, measured EC50 of Oc1cncc(N2C[C@H]3C[C@@H]2CN3)c1
2.6

State, in one line, measured EC50 of NC(=O)c1cncc(N2C[C@H]3C[C@@H]2CN3)c1
28

State, in one line, measured EC50 of Fc1ccc(N2C[C@@H]3C[C@H]2CN3)cn1
3.7

State, in one line, measured EC50 of N#Cc1cncc(N2C[C@H]3C[C@@H]2CN3)c1
0.98

State, in one line, measured EC50 of c1cncc(N2C[C@H]3C[C@@H]2CN3)c1
0.37

State, in one line, measured EC50 of COc1cncc(N2C[C@@H]3C[C@H]2CN3)c1
30

State, in one line, measured EC50 of COc1cncc(N2C[C@H]3C[C@@H]2CN3)c1
5.7

State, in one line, measured EC50 of NCc1cncc(N2C[C@@H]3C[C@H]2CN3)c1
20

State, in one line, measured EC50 of COc1ccc(N2C[C@H]3C[C@@H]2CN3)cn1
0.85
